- target.system: human TrkA receptor (Homo sapiens (Human))
- test.summary: DiscoverX PathHunter TrkA functional assay (NGF-stimulated U2OS cells)
- Type: cell-based
- experimental.context: U2OS cells expressing human TrkA-PK, Shc1-EA and p75NTR; compound 1 h, then NGF at ~80% of maximal response for 3 h; luminescence
# note: exactly 30 nM is not below, so it is criterion not met; use criterion met for IC50 strictly under it

>>> answer_label("O=C(Nc1cc2c(nc1-c1ccccc1)CN(C(=O)CO)C2)c1cc(-c2ncccn2)c(C(F)(F)F)cc1F")
"criterion not met"
>>> answer_label("Cn1ccc(-c2cnc(N3CCC[C@@H]3CO)c(NC(=O)c3cc(-c4ncccn4)c(C(F)(F)F)cc3F)c2)n1")
"criterion met"
>>> answer_label("CN1CC(NC(=O)c2cnc(-c3ccccc3)c(NC(=O)c3cc(-c4cc[nH]n4)c(C(F)(F)F)cc3F)c2)C1")
"criterion not met"
>>> answer_label("Cn1ccc(-c2cc(C(=O)Nc3cc4c(nc3-c3ccccc3)CN(C(N)=O)CC4)c(F)cc2C(F)(F)F)n1")
"criterion met"
>>> answer_label("Cn1ccc(-c2cc(C(=O)Nc3cc(CC(N)=O)cnc3-c3ccccc3)c(F)cc2C(F)(F)F)n1")
"criterion met"
>>> answer_label("Cn1ccc(-c2cc(C(=O)Nc3cnc(CNC(=O)CS(C)(=O)=O)nc3-c3ccccc3)c(F)cc2C(F)(F)F)n1")
"criterion met"
>>> answer_label("Cn1ccc(-c2cc(C(=O)Nc3cnc(CC(=O)NC[C@@H]4CCCO4)nc3-c3ccccc3)c(F)cc2C(F)(F)F)n1")
"criterion met"

###

Below, each entry is listed alongside its reported pIC50.
- target.system: human TrkA receptor (Homo sapiens (Human), UniProt P04629)
- Sequence (P04629 33-796): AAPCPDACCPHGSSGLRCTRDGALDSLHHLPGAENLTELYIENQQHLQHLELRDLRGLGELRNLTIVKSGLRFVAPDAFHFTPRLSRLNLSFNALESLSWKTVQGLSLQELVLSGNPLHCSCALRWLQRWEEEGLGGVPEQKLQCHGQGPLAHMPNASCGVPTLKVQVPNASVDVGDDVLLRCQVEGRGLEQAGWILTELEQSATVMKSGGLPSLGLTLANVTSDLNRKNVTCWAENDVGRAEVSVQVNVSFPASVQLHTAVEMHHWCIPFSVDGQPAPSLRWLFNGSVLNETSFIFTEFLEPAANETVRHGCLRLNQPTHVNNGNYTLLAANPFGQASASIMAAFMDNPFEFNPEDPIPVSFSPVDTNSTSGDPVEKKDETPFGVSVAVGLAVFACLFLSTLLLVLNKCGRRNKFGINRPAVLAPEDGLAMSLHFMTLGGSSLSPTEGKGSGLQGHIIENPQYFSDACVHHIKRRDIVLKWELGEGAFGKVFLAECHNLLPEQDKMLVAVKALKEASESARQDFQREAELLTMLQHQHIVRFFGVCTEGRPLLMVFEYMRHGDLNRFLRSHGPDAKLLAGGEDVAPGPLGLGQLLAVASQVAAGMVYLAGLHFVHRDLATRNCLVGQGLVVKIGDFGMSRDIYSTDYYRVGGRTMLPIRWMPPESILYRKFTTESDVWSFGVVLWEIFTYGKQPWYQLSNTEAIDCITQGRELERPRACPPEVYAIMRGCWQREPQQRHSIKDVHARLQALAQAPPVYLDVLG
- test.summary: DiscoverX PathHunter TrkA functional assay (NGF-stimulated U2OS cells)
- experimental.context: U2OS cells expressing human TrkA-PK, Shc1-EA and p75NTR; compound 1 h, then NGF at ~80% of maximal response for 3 h; luminescence
pIC50: −log10 of the molar value.
value.type: pIC50

>>> obs_value("CC(=O)NCc1ncc(NC(=O)c2cc(-c3cc[nH]n3)c(C(F)(F)F)cc2F)c(-c2ccccc2)n1")
8.03
>>> obs_value("CC(=O)N1CCc2nc(-c3ccccc3)c(NC(=O)c3cc(-c4ccn(C)n4)c(C(F)(F)F)cc3Cl)cc2C1")
9.27
>>> obs_value("C[C@H](O)C(=O)NCc1ccc(NC(=O)c2cc(-c3ccn(C)n3)c(C(F)(F)F)cc2F)c(-c2ccccc2)n1")
9.35
>>> obs_value("Cn1ccc(-c2cc(C(=O)Nc3ccc(CNC(=O)CS(C)(=O)=O)nc3-c3ccccc3)c(F)cc2C(F)(F)F)n1")
9.64
>>> obs_value("Cn1ccc(-c2cc(C(=O)Nc3nc(CC(N)=O)ccc3-c3ccccc3)c(F)cc2C(F)(F)F)n1")
8.08
>>> obs_value("Cc1cnn(-c2ccncc2NC(=O)c2ccc(C(F)(F)F)c(-c3ccn(C)n3)c2)c1")
7.60
>>> obs_value("CC(=O)N1CCc2nc(-c3ccccc3)c(NC(=O)c3cc(-c4ncccn4)c(C(F)(F)F)cc3F)cc2C1")
8.48
>>> obs_value("Cn1ccc(-c2cc(C(=O)Nc3cnc(Cn4ccc(=O)[nH]c4=O)nc3-c3ccccc3)c(F)cc2C(F)(F)F)n1")
9.46
>>> obs_value("Cn1ccc(-c2cc(C(=O)Nc3cc4c(nc3-c3ccccc3)CCNC4=O)c(F)cc2C(F)(F)F)n1")
10.16
>>> obs_value("Cc1ncc(NC(=O)c2cc(-c3ccn(C)n3)c(C(F)(F)F)cc2F)c(-c2ccccc2CCN(C)C)n1")
9.24
>>> obs_value("CNC(=O)c1ccc(-c2cnc(-c3ccccc3)c(NC(=O)c3cc(-c4ncccn4)c(C(F)(F)F)cc3F)c2)nc1")
8.32
>>> obs_value("Cc1ncc(NC(=O)c2cccc(-n3nccc3C(F)(F)F)c2)c(-c2ccccc2)n1")
6.23
>>> obs_value("C[C@H](O)CNC(=O)c1cnc(-c2ccccc2)c(NC(=O)c2cc(-c3ccn(C)n3)c(C(F)(F)F)cc2F)c1")
8.92
>>> obs_value("NC(=O)Cc1ncc(NC(=O)c2cc(-c3ccccn3)c(C(F)(F)F)cc2F)c(-c2ccccc2)n1")
8.08
>>> obs_value("NC(=O)N1CCc2nc(-c3ccccc3)c(NC(=O)c3cc(-c4ncccn4)c(C(F)(F)F)cc3F)cc2C1")
8.64
